Provide the recorded koff for the entries that follow.
Biological target: T1, human soluble urokinase plasminogen activator receptor (hsuPAR) (human, UniProt Q03405 23-303, limits assumed)
T1 construct: also called human suPAR; rhuPAR-His
T1 sequence (Q03405 23-303 limits assumed): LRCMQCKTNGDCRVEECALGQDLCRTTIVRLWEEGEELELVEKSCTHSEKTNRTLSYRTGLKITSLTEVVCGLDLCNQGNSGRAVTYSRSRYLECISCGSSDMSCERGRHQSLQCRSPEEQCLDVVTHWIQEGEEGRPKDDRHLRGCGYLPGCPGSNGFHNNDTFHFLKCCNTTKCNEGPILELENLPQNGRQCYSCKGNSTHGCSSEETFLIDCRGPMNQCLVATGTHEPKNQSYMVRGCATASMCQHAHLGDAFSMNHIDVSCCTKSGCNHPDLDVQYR
Experiment: BLI (Octet) off-rate screen of scFv
Dear colleague, please return just the value in s⁻¹, with no unit written.

Return reported koff; argument: suPAR_DB01_H03 (scFv, V domains shown, Screened as scFv) VH: QVQLVQSGAEVKKPGASVKVSCKASGDTITNYYMHWVRQAPGQGLEWMGWIDTNSGGTQYAQKFQGRVTMTRDTSTSTVYMELSSLRSEDTAVYYCARGYDVDWFVYWGQGTLVTVSS VL: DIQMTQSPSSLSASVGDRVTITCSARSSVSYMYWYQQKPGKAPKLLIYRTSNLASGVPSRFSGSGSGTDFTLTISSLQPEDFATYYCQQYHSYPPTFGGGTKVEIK
0.001

Would you mind doing suPAR_DB02_A10 (scFv, V domains shown, Screened as scFv) VH: QVQLVQSGAEVKKPGASVKVSCKASGYTFTGNYMHWVRQAPGQGLEWMGWIDHENGNTIYDQKFQGRVTMTRDTSTSTVYMELSSLRSEDTAVYYCARGSDVDWFVYWGQGTLVTVSS VL: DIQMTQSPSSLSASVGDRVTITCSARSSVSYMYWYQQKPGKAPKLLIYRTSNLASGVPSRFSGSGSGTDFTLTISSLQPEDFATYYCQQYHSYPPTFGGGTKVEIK as well?
0.00319

Would you mind doing suPAR_DB02_C02 (scFv, V domains shown, Screened as scFv) VH: QVQLVQSGAEVKKPGASVKVSCKASGYTFKSYYMHWVRQAPGQGLEWMGWIDHENGNTIYDQKFQGRVTMTRDTSTSTVYMELSSLRSEDTAVYYCASGYDVDWFVYWGQGTLVTVSS VL: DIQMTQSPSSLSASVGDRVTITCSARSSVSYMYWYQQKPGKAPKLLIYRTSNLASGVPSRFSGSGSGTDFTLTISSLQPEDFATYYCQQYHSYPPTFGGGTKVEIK as well?
0.00429

Would you mind doing suPAR_DB02_A11 (scFv, V domains shown, Screened as scFv) VH: QVQLVQSGAEVKKPGASVKVSCKASGGTFSSYYMHWVRQAPGQGLEWMGWIDPSNGNTIYDQKFQGRVTMTRDTSTSTVYMELSSLRSEDTAVYYCARGYDVDWFVYWGQGTLVTVSS VL: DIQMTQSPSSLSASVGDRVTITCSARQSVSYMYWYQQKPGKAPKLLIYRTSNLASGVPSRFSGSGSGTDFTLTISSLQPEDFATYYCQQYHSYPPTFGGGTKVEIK as well?
0.00447

Would you mind doing suPAR_DB01_F06 (scFv, V domains shown, Screened as scFv) VH: QVQLVQSGAEVKKPGASVKVSCKASGYTFTSYYMHWVRQAPGQGLEWMGWIDHENGNTIYAQKFQGRVTMTRDTSTSTVYMELSSLRSEDTAVYYCARGYDVDWFVYWGQGTLVTVSS VL: DIQMTQSPSSLSASVGDRVTITCSARQSISYMYWYQQKPGKAPKLLIYRTSNLQSGVPSRFSGSGSGTDFTLTISSLQPEDFATYYCQQYHSYPPTFGGGTKVEIK as well?
0.00267
